Procedure summary: Solubility in distilled water (shake-flask, HPLC)
Format: physicochemical
Test settings: 37 °C, water, thermodynamic from solid, read-out: Solubility of SN38
Value type: solubility at 48 h

Just so you know, measured solubility at 48 h for CCc1c2c(nc3ccc(O)cc13)-c1cc3c(c(=O)n1C2)COC(=O)[C@]3(O)CC [SN38, 7-ethyl-10-hydroxycamptothecin] came out at < 0.01 µg/mL

====

Procedure summary: Solubility in distilled water (shake-flask, HPLC)
Format: physicochemical
Test settings: 37 °C, water, thermodynamic from solid, read-out: Solubility of PTX
Value type: solubility at 48 h (µg/mL)
Answers are plain numbers, in µg/mL.

Just so you know, measured solubility at 48 h for CC(=O)O[C@H]1C(=O)[C@@]2(C)[C@H]([C@H](OC(=O)c3ccccc3)[C@]3(O)C[C@H](OC(=O)[C@H](O)[C@@H](NC(=O)c4ccccc4)c4ccccc4)C(C)=C1C3(C)C)[C@]1(OC(C)=O)CO[C@@H]1C[C@@H]2O [PTX, paclitaxel] came out at 0.17

====

Procedure summary: Solubility in distilled water (shake-flask, HPLC)
Assay type: physicochemical
Test settings: thermodynamic from solid, 37 °C, 48 h, read-out: Solubility of SFN
Structures can show the parent of a compound that is named as a salt.
Value type: solubility at 48 h

Just so you know, measured solubility at 48 h for CNC(=O)c1cc(Oc2ccc(NC(=O)Nc3ccc(Cl)c(C(F)(F)F)c3)cc2)ccn1 [SFN, Sorafenib tosylate] came out at < 0.1 µg/mL
